Data provenance: patent US11497212B2

Test system: Triticum aestivum
PROTOCOL TEXT: Crop compatibility post-emergence (greenhouse pot trial)
Assay type: in vivo
MEASUREMENT PARAMETERS: application rate 5 g/ha
ASSAY READOUT: Triticum aestivum (Efficacy in %)

{"COMPOUND": "Cn1c(C(F)(F)F)cc(=O)n(-c2cc(SCC(C)(C)C(=O)OCC3CCSC3)c(Cl)cc2F)c1=O (centres unmarked) [I.48-82]", "MEASURED": 0}
{"COMPOUND": "CCC(Sc1cc(-n2c(=O)c(C)c(C(F)(F)F)n(C)c2=O)c(F)cc1Cl)C(=O)OCC1CCCCO1 (centres unmarked) [I.12-91]", "MEASURED": 0}
{"COMPOUND": "CC(Sc1cc(-n2c(=O)cc(C(F)(F)F)n(C)c2=O)c(F)cc1Cl)C(=O)NCC1CCOC1(C)C (centres unmarked) [I.1-227]", "MEASURED": 10}

(I) CCC(Sc1cc(-n2c(=O)cc(C(F)(F)F)n(C)c2=O)c(F)cc1Cl)C(=O)OCC1CCCOC1 (centres unmarked) [I.2-92]
(II) CCOCCCOC(=O)C(C)Sc1cc(-n2c(=O)cc(C(F)(F)F)n(C)c2=O)c(F)cc1Cl (centres unmarked) [I.1-27]
Problem: Recorded Triticum aestivum (Efficacy in %) values differ for I and II ; which one is higher? To answer, give the label that identifies your chosen option.
Result: I

====

Tested on: Hordeum murinum
PROTOCOL TEXT: Herbicidal action post-emergence (greenhouse pot trial)
Assay type: in vivo
MEASUREMENT PARAMETERS: application rate 20 g/ha, scored visually after about 3 weeks vs untreated controls
Listed below: Hordeum murinum (Efficacy in %) values for each entry.
Your answer is read as %, so omit the unit and give the number.

Solved entries:
{"COMPOUND": "CC(C)C(Sc1cc(-n2c(=O)cc(C(F)(F)F)n(C)c2=O)c(F)cc1Cl)C(=O)OCC1CCCO1 (centres unmarked)", "ASSAY READOUT": "Hordeum murinum (Efficacy in %)", "UNIT ABBREV": "%", "MEASURED": 80}
{"COMPOUND": "CC(C)CC(Sc1cc(-n2c(=O)cc(C(F)(F)F)n(C)c2=O)c(F)cc1Cl)C(=O)NCC1CCCO1 (centres unmarked)", "ASSAY READOUT": "Hordeum murinum (Efficacy in %)", "UNIT ABBREV": "%", "MEASURED": 80}
{"COMPOUND": "CC(Sc1cc(-n2c(=O)cc(C(F)(F)F)n(C)c2=O)c(F)cc1Cl)C(=O)OC1COC1 (centres unmarked)", "ASSAY READOUT": "Hordeum murinum (Efficacy in %)", "UNIT ABBREV": "%", "MEASURED": 100}
{"COMPOUND": "CC(Sc1cc(-n2c(=O)cc(C(F)(F)F)n(C)c2=O)c(F)cc1Cl)C(=O)OCCCSC(F)(F)F (centres unmarked)", "ASSAY READOUT": "Hordeum murinum (Efficacy in %)", "UNIT ABBREV": "%", "MEASURED": 80}

Now for a further compound.
Problem: Hordeum murinum (Efficacy in %) for CC(Sc1cc(-n2c(=O)cc(C(F)(F)F)n(C)c2=O)c(F)cc1Cl)C(=O)OC1CCOC1 (centres unmarked) ?
Result: 80

====

Test system: Pharbitis purpurea
PROTOCOL TEXT: Herbicidal action post-emergence (greenhouse pot trial)
Format: in vivo
MEASUREMENT PARAMETERS: application rate 20 g/ha
Listed below: Pharbitis purpurea (Efficacy in %) values for each entry.
Your answer is read as %, so omit the unit and give the number.

Solved entries:
{"MOLECULE": "Cn1c(C(F)(F)F)cc(=O)n(-c2cc(SCC(C)(C)C(=O)OCC3CCOCC3)c(Cl)cc2F)c1=O [I.48-93]", "UNIT ABBREV": "%", "Pharbitis purpurea (Efficacy in %)": 100}
{"MOLECULE": "Cn1c(C(F)(F)F)cc(=O)n(-c2cc(SCC(C)(C)C(=O)OCC3CCCCO3)c(Cl)cc2F)c1=O (stereo not shown) [I.48-91]", "UNIT ABBREV": "%", "Pharbitis purpurea (Efficacy in %)": 100}
{"MOLECULE": "Cc1c(C(F)(F)F)n(C)c(=O)n(-c2cc(SC(CC(C)C)C(=O)OCC3CCCO3)c(Cl)cc2F)c1=O (stereo not shown) [I.14-71]", "UNIT ABBREV": "%", "Pharbitis purpurea (Efficacy in %)": 100}

Now for a further molecule.
Problem: Pharbitis purpurea (Efficacy in %) for Cc1c(C(F)(F)F)n(C)c(=O)n(-c2cc(SC(CC(C)C)C(=O)OCC3CCOC3)c(Cl)cc2F)c1=O (stereo not shown) [I.14-72] ?
Result: 80
